Just for reference, PubChem BioAssay (NCI) is where these values come from.

Reported values of growth for individual entries
- Tested on: SNB-75 CNS
- PROTOCOL: NCI-60 one-dose screen, 48 h (100 = growth as untreated, 0 = no growth, -100 = all killed)
- EXPERIMENTAL CONDITIONS: 10 µM unless noted
The panel holds about 83,000 compounds, 20% with a hit somewhere; the sample as a whole holds those more often.
State the answer as a number, implicitly in %.

Measured on SNB-75 CNS, `CCSc1nnc(NC(=O)Cc2ccc(Cl)cc2)s1` has a documented growth of 106

Record for `COc1ccc(Cn2cc(COc3cc(/C=C/C(=O)c4cc(OC)c(OC)c(OC)c4)ccc3OC)nn2)cc1` under target or system SNB-75 CNS: growth reported as 59.8

Item `Cc1nn(-c2ccc(Cl)cc2)c(=O)n1CCOc1ccccc1Cl` ; assay system SNB-75 CNS; growth reported as 70.6

---

- Test system: NCI-H522 lung
- PROTOCOL: NCI-60 one-dose screen, 48 h (100 = growth as untreated, 0 = no growth, -100 = all killed)
- EXPERIMENTAL CONDITIONS: 10 µM unless noted
- Procedure: Growth inhibition of the NCI-H522 human Non-Small Cell Lung tumor cell line is measured as a screen for anti-cancer activity. Cells are grown in 96 well plates and exposed to the test compound for 48 hours. Compounds are tested at a single concentration, which is 10^-5 M for most compounds. The reported endpoint is percent growth (GI% or GIPRCNT), where numbers from 0 - 100% represent growth inhibition, and numbers from -100% - 0 represent cell death. […]
The panel holds about 83,000 compounds, 20% with a hit somewhere; the sample as a whole holds those more often.
Reported growth values follow for various compounds
Field: numeric (%). Do not append units.

Some compounds with known growth results, for comparison:
{"columns": ["COMPOUND", "growth, %"],
 "data": [
  ["CCCCC[C@@H]1Cc2cc(O)c(C(=O)O)c3c2[C@H](C[C@@]2(CCCO2)O3)O1", 89.7],
  ["O=C(Cc1n[nH]c(=O)c2ccccc12)OCc1c(Cl)cccc1Cl", 98.9],
  ["COc1ccc(/C(=N/O)c2cc(F)c(F)c(OC)c2F)cc1O", -56.7],
  ["COc1cc(-n2nc(C(=O)Nc3ccc(C(=O)O)cc3)nc2-c2ccccc2)cc(OC)c1OC", 55.9],
  ["COc1ccc(NC(=O)CSc2nc3ccccc3c(=O)n2-c2ccccc2C(F)(F)F)c(OC)c1OC", 112]
]}

Per the reported NCI-H522 lung data, `O=S(=O)(NCCCNc1cc(-c2cn(-c3ccccc3)nc2-c2cccc(O)c2)ccn1)c1ccc(C(F)(F)F)cc1` has growth of 69.7

Entry `COc1ncc(-c2ccc3ncnc(Nc4cccc(Cl)c4)c3c2)cc1NS(=O)(=O)CCN1CCOCC1` ; assay system NCI-H522 lung; growth recorded at 14

Item CC(Br)C(O)c1cc2c(cc1Br)OCO2 (stereo unspecified) ; assay system NCI-H522 lung; growth reported as 99.9

Response field growth (NCI-H522 lung) for item `Cc1ccc(S(=O)(=O)N2CCC(C(=O)Nc3ccc(F)cc3F)CC2)cc1` : 102

Tested on NCI-H522 lung, the item O=C(c1ccccc1)C(Cl)C(Cl)c1ccccc1 (stereo unspecified) showed growth equal to -83.5

Tested on NCI-H522 lung, the item `Cc1cccc(-n2c(C)nc3ccc(NC(=O)NCCCl)cc3c2=O)c1` showed growth equal to 98.9

Per the reported NCI-H522 lung data, `N#Cc1ccc(NC(=O)c2ccc3cccnc3c2O)cc1` has growth of 18.6

// returns growth for Clc1ccc2c(c1)NC1(CCSc3ccccc31)n1nccc1-2 (stereo unspecified) with NCI-H522 lung; value = 89.7

Test item `O=S(=O)(NCCNc1nccc(-c2c(-c3ccccc3)nc3sccn23)n1)c1ccc(O)cc1` ; NCI-H522 lung; reported growth was 65.4

Noted growth for `CC1=C(C#N)C(C)(C)C(C#N)=C(C)N1` , tested on NCI-H522 lung: 104

Form field, growth with NCI-H522 lung, item `COc1ccc2c(c1)NC(=O)CN2c1nc(C)nc2ccccc12` : -21.1

Short answer on NCI-H522 lung for `COC(=O)CC/C(C)=N\Nc1ccc([N+](=O)[O-])cc1` , growth: 38.4

---

- Test system: HOP-92 NSCLC
- PROTOCOL: NCI-60 one-dose screen, 48 h
- EXPERIMENTAL CONDITIONS: 10 µM unless noted
- Procedure: Growth inhibition of the HOP-92 human Non-Small Cell Lung tumor cell line is measured as a screen for anti-cancer activity. Cells are grown in 96 well plates and exposed to the test compound for 48 hours. Compounds are tested at a single concentration, which is 10^-5 M for most compounds. The reported endpoint is percent growth (GI% or GIPRCNT), where numbers from 0 - 100% represent growth inhibition, and numbers from -100% - 0 represent cell death. […]
Compounds without any hit were thinned out: in the full panel of roughly 83,000, 20% have a hit. The source made the active and inactive calls. The calls were made as follows: active = growth percent below 10; inactive = the rest.
Your answer must be one of the following: active, inactive

Past entries and their recorded results:
{"columns": ["COMPOUND", "CLASS NAME"],
 "data": [
  ["O=C1Nc2cc(Cl)ccc2Oc2cc(Oc3ccccc3)ccc21", "inactive"],
  ["O=C1CCC(=O)N1Cc1ccccc1", "inactive"],
  ["Oc1ccc(N=Cc2ccccc2)cc1", "inactive"],
  ["CCN1C(=O)N(CC)C2Nn3c(s/c(=C\\c4cccc(F)c4)c3=O)=NC21 (configuration not stated)", "inactive"],
  ["COc1ccc(/C=C(\\C#N)c2ccc([N+](=O)[O-])cc2)c2ccccc12", "inactive"],
  ["COc1ccc(-c2nnc(COc3ccc(NS(=O)(=O)c4ccc(OC)cc4)cc3F)o2)cc1", "inactive"],
  ["NC(=S)NN=C1CCCCC1", "inactive"],
  ["COc1ccc(-c2nc(-c3ccccc3)c(-c3ccccc3)n2C2CC2)cc1OC1CCCCC1", "inactive"],
  ["CN(C)C1CCC(NC2=CC(=O)C=CC2=O)CC1 (configuration not stated)", "inactive"],
  ["COc1ccc(-c2nnc(COc3ccc(NC(=O)Nc4ccc(Cl)c(C(F)(F)F)c4)cc3F)o2)cc1", "active"]
]}

Query: What call does the record list for `NC(N)=NC(N)=Nc1ccccc1-c1ccccc1` ?
Result: inactive

Query: How was `O=S(=O)(NCCCNc1cc(-c2cn(-c3ccccc3)nc2-c2cccc(O)c2)ccn1)c1ccc(C(F)(F)F)cc1` classified in this test?
Result: inactive

Query: How did this test come out for `CCCCCCCCCCC/C=C\C[C@H](O)C/C=C1/C(=O)C=C[C@@H]1C/C=C\CCCC(=O)OC` ?
Result: active

Query: For this compound, state the assay outcome: `Cc1sc(N=Nc2ccc(N(C)C)cc2)[n+]([O-])c1C`
Result: inactive

Query: Fill in: this test's call for `O=C1Nc2cc(Cl)ccc2/C1=C/c1ccc(N2CCOCC2)s1` is ___
Result: inactive

Query: recorded result category for `Cc1nc(Nc2cccnc2)sc1C(=O)/C=C/c1ccc(Cl)cc1` in this test
Result: inactive

Query: Just curious, what result did Cc1ccc2c(c1)C(C)Cc1c(ncnc1-n1cnc3ccccc31)N2C (configuration not stated) get here?
Result: inactive

Query: So what was the verdict on CCC(c1ccc(OC)cc1)C(CC)c1ccc(OCC[N+](C)(C)C)cc1 (configuration not stated) in this test?
Result: active

---

- System: SF-295 CNS
- PROTOCOL: NCI-60 one-dose screen, 48 h (100 = growth as untreated, 0 = no growth, -100 = all killed)
- EXPERIMENTAL CONDITIONS: 10 µM unless noted
- Procedure: Cells are grown in 96 well plates and exposed to the test compound for 48 hours. Compounds are tested at a single concentration, which is 10^-5 M for most compounds. The reported endpoint is percent growth (GI% or GIPRCNT), where numbers from 0 - 100% represent growth inhibition, and numbers from -100% - 0 represent cell death. For example, a value of 40 represents 60% growth inhibition. A value of 0 means no net growth occurred over the course of the experiment. […]
Compounds without any hit were thinned out: in the full panel of roughly 83,000, 20% have a hit. Activity calls are given as the source filed them. The calls were made as follows: active = growth percent below 10; inactive = the rest.
MEASURED ATTRIBUTE: growth

Worked examples follow.
{"columns": ["MOLECULE", "REPORTED MEASUREMENT"],
 "data": [
  ["O=C(CSc1nc(-c2ccc(Cl)cc2)cn1-c1ccc(Cl)cc1)c1ccc(Br)cc1", "52.1% (inactive)"],
  ["CCOC(=O)CC/C(C)=N\\Nc1ccc([N+](=O)[O-])cc1", "60% (inactive)"],
  ["CCOC(=O)C1=C(CSC(=S)N(C2CCCCC2)C2CCCCC2)N(C)C(=O)NC1c1ccccc1 (configuration not stated)", "39.9% (inactive)"],
  ["COc1cc(/C=C/C(=O)c2ccccc2O)ccc1OCCCOc1cc2c(cc1OC)C(=O)N1CCC[C@H]1C=N2", "-11% (active)"]
]}

Recorded growth (molecule `O=C(Nc1ccc(I)cc1)c1cccc([N+](=O)[O-])c1O` ): 4.77% (active)

Lookup result for `COc1cc(-c2n[nH]nc2-c2ccc3c(c2)OCCO3)cc(OC)c1OC` ; measured growth: 2.6% (active)

Lab book: growth of `COc1ccc(S(=O)(=O)NCCNc2nccc(-c3c(-c4ccccc4)nc4sccn34)n2)cc1` noted as 16.6% (inactive)
